B1: MEIG1 wild type, two-hybrid fusion from MEIG1/pGBKT7 [mouse] / Parkin co-regulated gene protein (PACRG), two-hybrid fusion from PACRG/pGADT7 [mouse] (parent complex)
chain 1: MATSDVKPKSISRAKKWSEEIENLYRFQQAGYRDEIEYKQVKQVAMVDRWPETGYVKKLQRRDNTFFYYNKERECEDKEVHKVKVYVY
chain 2: not shown

Variants of: B1
Experiment: yeast two-hybrid, α-galactosidase activity; Yeast strain AH109 co-transformed with PACRG/pGADT7 and MEIG1/pGBKT7 plasmids; parent: 65; read off a plot
Recorded Metric: response

Answered cases to consult:
# input Quick check: response of chain 1 H81A ?
# output ~85

# input # get_value(readout='response', item= chain 1 R62E )
# output ~67

# input Look up response: chain 1 I36A
# output ~67

# input Value lookup for response; key = chain 1 E20R
# output ~72

More entries:
# input Requested field: response. Item: chain 1 Y68A
# output ~5

# input Report response for chain 1 K57E please.
# output ~22

# input Which response is listed for chain 1 R13E ?
# output ~81

# input Fill in the blank: the reported response of chain 1 Y25A is ____.
# output ~58

# input What measured response goes with chain 1 V87A ?
# output ~72
